Assay: protein stability index of a GFP-peptide fusion (yeast GPS) (PSI 1-4); higher = more stable; sorted into four equal gates, so the index is relative within each strain
Conditions: san1∆
Note to self: values exactly at 3 are MET. So protein stability index at or above 3 is MET, below is NOT MET.

{"orderedResidues": "MIFETIVDGKLKTEKIF [FAS1]", "classLabel": "NOT MET"}
{"orderedResidues": "FIYGEDGMDAAHIEKQS [RPO21]", "classLabel": "MET"}
{"orderedResidues": "MSYVVRILSTLDRELLK [RPT3]", "classLabel": "NOT MET"}
{"orderedResidues": "LPSGVLSRGDDEVTIRR [SMC3]", "classLabel": "MET"}
{"orderedResidues": "ICLYSSFQKNSLHNTEK [AAR2]", "classLabel": "NOT MET"}
{"orderedResidues": "NKANIQALIHGLNRHYY [RPN11]", "classLabel": "NOT MET"}
{"orderedResidues": "LKAVTVEAGMIALRNGQ [RPT5]", "classLabel": "NOT MET"}
{"orderedResidues": "FRTDMLQVADKFFRVKY [SMC3]", "classLabel": "NOT MET"}
{"orderedResidues": "YSLQPSVDITGGPWFTD [RPC34]", "classLabel": "NOT MET"}
{"orderedResidues": "IIKLVEGLANDPENKVP [RPS12]", "classLabel": "NOT MET"}
{"orderedResidues": "PSQTLFSISYKPPTQKT [SRP21]", "classLabel": "NOT MET"}
{"orderedResidues": "DIPPPAIMKPYYLWTGK [RPO31]", "classLabel": "NOT MET"}
{"orderedResidues": "THTEQNNPPKPQKPVPL [SNF2]", "classLabel": "MET"}
{"orderedResidues": "YLDQHKRTRLESLKNLN [SMC3]", "classLabel": "NOT MET"}
{"orderedResidues": "MFTATMTPVIEKIAAGY [PRP28]", "classLabel": "NOT MET"}
{"orderedResidues": "EQLKEQMEDMEESINEF [SMC4]", "classLabel": "MET"}
{"orderedResidues": "KIAHGTTTLAFRFQGGI [PRE2]", "classLabel": "NOT MET"}
{"orderedResidues": "TLLRLNELLDLTESQTE [RPN5]", "classLabel": "NOT MET"}
{"orderedResidues": "APLFKKNSSRPMPPIRG [SMD3]", "classLabel": "NOT MET"}
{"orderedResidues": "YYGLVIDLLLLGQERAT [PRP8]", "classLabel": "NOT MET"}
{"orderedResidues": "SYFYRRIHVNPSYYGVR [BRR2]", "classLabel": "NOT MET"}
{"orderedResidues": "IRVLFKENGQLIGAATK [SEC65]", "classLabel": "NOT MET"}
{"orderedResidues": "FLTPMDSIDLAPNTLTN [YML103C/NUP188]", "classLabel": "NOT MET"}
{"orderedResidues": "EKKQKTESQDVETRVQN [DPB4]", "classLabel": "MET"}
{"orderedResidues": "MQLEEELMKLDGTEYVL [MED6]", "classLabel": "MET"}
{"orderedResidues": "EKLLRHVDSLIEDFVDG [SRB7]", "classLabel": "MET"}
{"orderedResidues": "TNWDDHAIIIFGYPETI [YMR153W/NUP53]", "classLabel": "NOT MET"}
{"orderedResidues": "QRDAEISQPKSMSGRIS [BRR2]", "classLabel": "MET"}

----------
Test: protein stability index of a GFP-peptide fusion (yeast GPS) (PSI 1-4); higher = more stable; sorted into four equal gates, so the index is relative within each strain
Conditions: san1∆
Note to self: values exactly at 3 are satisfied. So protein stability index at or above 3 is satisfied, below is not satisfied.

{"orderedResidues": "VMKDIYKVENVTLYWNN [ESC2]", "classLabel": "not satisfied"}
{"orderedResidues": "MSAPTMRSTSILTEHLG [MTW1]", "classLabel": "not satisfied"}
{"orderedResidues": "QQQDQPEQSEQPEQHQD [RPN10]", "classLabel": "not satisfied"}
{"orderedResidues": "ASSAAAGAAGAAAGGDA [RPP2B]", "classLabel": "satisfied"}

----------
Assay: protein stability index of a GFP-peptide fusion (yeast GPS) (PSI 1-4); higher = more stable; sorted into four equal gates, so the index is relative within each strain
Settings: ubr1∆
protein stability index values by entry

{"orderedResidues": "DRVVSSDSLDIAQGIDL [SRP72]", "protein stability index": 3}
{"orderedResidues": "LLPQWDDDQIESLKKSP [ARP9]", "protein stability index": 3.12}
{"orderedResidues": "FPMPYENEEFITFLQTL [ECM29]", "protein stability index": 2.39}
{"orderedResidues": "GRNLGRIGTIVHKERHD [RPS4A]", "protein stability index": 2.63}
{"orderedResidues": "IINSTALMKEKDIRSTL [RPC82]", "protein stability index": 3.25}
{"orderedResidues": "TPAEMSRPATTTRNGFM [FAS2]", "protein stability index": 2.52}
{"orderedResidues": "ILERAYKKLDIDGKVIQ [SNF2]", "protein stability index": 3}
{"orderedResidues": "MIFETIVDGKLKTEKIF [FAS1]", "protein stability index": 2.17}
{"orderedResidues": "HLAICLDIINPGSVEEV [YDL116W/NUP84]", "protein stability index": 3.45}
{"orderedResidues": "DYLNAELGEFFVNGVAT [FAS2]", "protein stability index": 3.35}

----------
Experiment: protein stability index of a GFP-peptide fusion (yeast GPS) (PSI 1-4); higher = more stable; sorted into four equal gates, so the index is relative within each strain
Conditions: san1∆

{"orderedResidues": "ANGTVVSFIKNGEEIVG [MTR3]", "protein stability index": 1.45}
{"orderedResidues": "FADKKRDCIDISIFSTP [PRP8]", "protein stability index": 2.87}
{"orderedResidues": "KLEYPHTDVSSSLEARY [RPN3]", "protein stability index": 2.75}
{"orderedResidues": "YQCAMGKQAIGAIAYNQ [RET1]", "protein stability index": 2.78}
{"orderedResidues": "KSLKNNFYRPLLRSVLV [YML103C/NUP188]", "protein stability index": 2.04}
{"orderedResidues": "KTVCAIALILAIQMVDP [SMC3]", "protein stability index": 2.08}
{"orderedResidues": "IFSQTTNSTYNPASATD [YJL039C/NUP192]", "protein stability index": 2.46}
{"orderedResidues": "EAVVDQDVQRTCILHGP [FAS1]", "protein stability index": 3.17}
{"orderedResidues": "VVRRRFRGNISQPKIGY [RPL32]", "protein stability index": 2.9}
{"orderedResidues": "STVASALDTNGTSATTE [SIR4]", "protein stability index": 2.91}
{"orderedResidues": "VLKFLTDLEKKHLWDQK [RPC17]", "protein stability index": 3.18}
{"orderedResidues": "QIPLHRAASVGSLKLIE [NAS6]", "protein stability index": 2.23}
{"orderedResidues": "TASVEKAEFSKEMTLQK [YIL149C/MLP2]", "protein stability index": 3.3}
{"orderedResidues": "SQPSKKSFANHTEDEQI [SIR4]", "protein stability index": 3.08}

----------
Assay: protein stability index of a GFP-peptide fusion (yeast GPS) (PSI 1-4); higher = more stable; sorted into four equal gates, so the index is relative within each strain
Conditions: pdr5∆
protein stability index values by entry

{"orderedResidues": "YELEFDTPTSGKHNLTI [BRR2]", "protein stability index": 3.04}
{"orderedResidues": "NAAPANVTGGKAANFIQ [SWI1]", "protein stability index": 1.86}
{"orderedResidues": "EYNRLKVQDAIEEEIFD [LIN1]", "protein stability index": 2.31}
{"orderedResidues": "FLHESSFDSIDHSWFLL [CSI1]", "protein stability index": 2.93}
{"orderedResidues": "LQFKSIREIDVAGGKKA [RPS7A]", "protein stability index": 1.49}
{"orderedResidues": "NVEKPSSKPAFNLISNA [YLR335W/NUP2]", "protein stability index": 3.15}
{"orderedResidues": "DIIMNPHGFPSRMTVGK [RET1]", "protein stability index": 2.83}
{"orderedResidues": "FLLLAVNKYGLRADKLY [ISW2]", "protein stability index": 2.5}
{"orderedResidues": "LASAIASGLLRAYLSHS [CSN12]", "protein stability index": 1.5}
{"orderedResidues": "SFSVCKIRCFRYISTLT [IRR1]", "protein stability index": 1.39}
{"orderedResidues": "NRLEIKYHNDLIEKEIQ [SMC1]", "protein stability index": 2.51}
{"orderedResidues": "HGKASRQQYYSGVQVGG [SNF6]", "protein stability index": 2.8}
{"orderedResidues": "NDFKKIGRENENENEDD [POP5]", "protein stability index": 3.28}
{"orderedResidues": "QAIKEASYVNIPVIALT [RPS0A]", "protein stability index": 2}
{"orderedResidues": "QMMARMAQTATQQQPGA [SRP54]", "protein stability index": 2.36}
{"orderedResidues": "DAMVTRTPVIISLRNNH [SMD2]", "protein stability index": 1.85}
{"orderedResidues": "EVGPWGSARTRWEMEAF [FAS2]", "protein stability index": 1.62}
{"orderedResidues": "IAASYHYPEIEDLVDRI [RPP0]", "protein stability index": 1.89}
{"orderedResidues": "PVLSTIAFLVGLVNPKT [SWI3]", "protein stability index": 2.52}
{"orderedResidues": "VDVFAMPQSGTGVSVEA [RPN11]", "protein stability index": 3.41}
{"orderedResidues": "SAGKGISSSAIPYSRNA [RPS13]", "protein stability index": 2.58}
{"orderedResidues": "LDDLVVLKKKNIQKKQP [RRP6]", "protein stability index": 1.38}
{"orderedResidues": "FLTPMDSIDLAPNTLTN [YML103C/NUP188]", "protein stability index": 1.68}
{"orderedResidues": "KMEKKKSSSLSLESFMK [SNM1]", "protein stability index": 3.32}
{"orderedResidues": "QDVAAKCKEVGITAVHV [RPS14B]", "protein stability index": 2.7}
{"orderedResidues": "QIQKNGPEITPEEATTI [PRP8]", "protein stability index": 2.98}
{"orderedResidues": "SDTSKPAFTFGAQKDNE [YJL041W/NSP1]", "protein stability index": 3.32}
{"orderedResidues": "KKYTQNNPLLLIVDVKQ [RPN8]", "protein stability index": 1.31}
{"orderedResidues": "IPRNSPLSDLKKRSQAK [RPC82]", "protein stability index": 3.17}
{"orderedResidues": "KKSKRLDKVGKKKGGKK [LRP1]", "protein stability index": 2.43}
{"orderedResidues": "DSILNYAKSEFDNVASV [ECM29]", "protein stability index": 3.14}
{"orderedResidues": "FEAAVKMSDGFNGADIR [RPT4]", "protein stability index": 3.46}
{"orderedResidues": "EELKDSEINEILARNDE [SNF2]", "protein stability index": 3.55}
{"orderedResidues": "ALNDVYLDADVAKLANW [YML031W/NDC1]", "protein stability index": 3.52}
{"orderedResidues": "KRLNGKRKYLDIPIDEM [SSN2]", "protein stability index": 2.97}
{"orderedResidues": "DQIAVCEISGSIEQLRN [BRN1]", "protein stability index": 3.26}
{"orderedResidues": "SAVKRLLHVAVSDSNDD [RPN2]", "protein stability index": 3.06}
{"orderedResidues": "TNPKLKSEFDDLSLNIH [YMR129W/POM152]", "protein stability index": 3.14}
{"orderedResidues": "INSGLYSVLLESPLSVA [YML103C/NUP188]", "protein stability index": 1.18}
{"orderedResidues": "DIEFINSLLTIVWRFIS [RPC34]", "protein stability index": 2.91}
{"orderedResidues": "DRNNSTNQIFQSRRYNL [SIN4]", "protein stability index": 2.93}
{"orderedResidues": "PISEKGLTLSTTNLDID [RPP1]", "protein stability index": 2.92}
{"orderedResidues": "VDPVYKDVAKPTGPKTA [FAS2]", "protein stability index": 3.05}
